Source of measurements: paper PMC5979965

subjectOfTest: mouse mPGES-1 (Mus musculus)
Construct: made in house; host or cells: FreeStyle 293-F cells, mPGES-1/pcDNA3 construct, crude microsomal preparation
Sequence (Q9JM51 1-153): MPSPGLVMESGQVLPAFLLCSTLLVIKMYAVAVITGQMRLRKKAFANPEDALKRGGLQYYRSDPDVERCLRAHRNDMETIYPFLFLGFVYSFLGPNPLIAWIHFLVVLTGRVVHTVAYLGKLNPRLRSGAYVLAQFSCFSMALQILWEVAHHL
assayOverview: Activity assay using recombinant mouse mPGES-1 (PGE2 enzyme immunoassay)
Assay type: biochemical
testContext: IC50 (nM) against mPGES-1, Mouse mPGES-1, Mean ± SD of measurements in triplicate
From the text: Our protocols for the protein preparation and in vitro activity assays were the same as described in previous reports[39],[41]–[43]. […] For the structure-activity relationship (SAR), we first investigated the impact of substitution on the central benzene ring on the inhibitory potency. […] The central benzene rings of 4i was originated from salicylaldehydes with chlorine substituted on 5-position. […] The length of the alkoxy side chain was also inspected in compounds 4b and 6. 3. […]
# IC50 values compiled below

| sampleSmiles | subjectOfTest | unitName | IC50 |
| --- | --- | --- | --- |
| O=C1NC(=O)C(=Cc2ccc(OCCCC3CCCCC3)c(Cl)c2)C(=O)N1 | mouse mPGES-1 (Mus musculus) | nM | 292 |
| O=C1NC(=O)C(=Cc2cc(Cl)ccc2OCCCCC2CCCCC2)C(=O)N1 | mouse mPGES-1 (Mus musculus) | nM | 19100 |
| O=C1NC(=O)C(=Cc2ccc(OCCCCC3CCCCC3)c(Cl)c2)C(=O)N1 | mouse mPGES-1 (Mus musculus) | nM | 157 |

###

subjectOfTest: UniProtKB O14684
Sequence (O14684 whole entry): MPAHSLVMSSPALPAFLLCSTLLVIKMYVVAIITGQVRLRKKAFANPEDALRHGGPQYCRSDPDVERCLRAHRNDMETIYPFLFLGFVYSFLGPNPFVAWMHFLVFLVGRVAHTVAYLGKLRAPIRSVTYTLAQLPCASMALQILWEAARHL
assayOverview: Activity assay using recombinant human mPGES-1 (PGE2 enzyme immunoassay)
# IC50 values compiled below

| sampleSmiles | IC50 (nM) |
| --- | --- |
| O=C1NC(=O)C(=Cc2ccc(OCCCC3CCCCC3)c(Cl)c2)C(=O)N1 | 69 |
| O=C1NC(=O)C(=Cc2ccc(OCCCCC3CCCCC3)c(Cl)c2)C(=O)N1 | 33 |
| O=C1NC(=O)C(=Cc2cc(Cl)ccc2OCCCCC2CCCCC2)C(=O)N1 | 87 |
